# Measured Target: MASP-2 CCP2-SP (Homo sapiens (Human))
# Sequence (O00187 445-686): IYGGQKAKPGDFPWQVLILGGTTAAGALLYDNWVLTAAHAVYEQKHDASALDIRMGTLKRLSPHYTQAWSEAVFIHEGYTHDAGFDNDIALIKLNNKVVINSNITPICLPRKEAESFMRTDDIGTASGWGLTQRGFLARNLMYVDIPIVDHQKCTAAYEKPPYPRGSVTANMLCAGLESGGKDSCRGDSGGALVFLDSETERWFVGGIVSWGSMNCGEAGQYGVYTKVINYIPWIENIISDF
# Sequence (O00187 364-432 partner): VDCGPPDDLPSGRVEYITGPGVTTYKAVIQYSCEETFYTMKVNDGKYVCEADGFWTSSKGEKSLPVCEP
# Test Method Notes: MASP-2 co-crystallization, X-ray crystallography and structure analysis (H-bonds, van der Waals contacts)
# Setup Conditions: Table A1 (H-Bonds); ASP 627 OD2
Where a name gives a salt, the structure may show the parent alone.
Recorded H-bond distance to MASP-2 ASP 627 atom OD2 by entry
Result Type: H-bond distance to MASP-2 ASP 627 atom OD2

# Compound, Measured Target, Obs Value
rows = [
    ("Cc1nc(N)ccc1CNC(=O)[C@H](C)NC(=O)[C@H]1C[C@H](Cc2cc(Cl)cc(Cl)c2)CN1 [compound 1435, Dihydrochloride]", "MASP-2 CCP2-SP (Homo sapiens (Human))", 3.32),
    ("C[C@H](NC(=O)[C@H]1C[C@@H](c2ccccc2)CN1)C(=O)NCc1ccc(C(=N)N)cc1", "MASP-2 CCP2-SP (Homo sapiens (Human))", 2.91),
    ("C[C@H](NC(=O)[C@H](N)C1Cc2ccccc2C1)C(=O)NCc1ccc2nc(N)[nH]c2c1", "MASP-2 CCP2-SP (Homo sapiens (Human))", 2.95),
    ("Cc1nc(N)ccc1CNC(=O)C(C)NC(=O)[C@H]1C[C@H](c2cccc(-c3ccccc3)c2)CN1 (stereo in doubt)", "MASP-2 CCP2-SP (Homo sapiens (Human))", 3.15),
    ("Cc1nc(N)ccc1CNC(=O)[C@H](C)NC(=O)[C@H]1C[C@@H](c2ccccc2)CCN1CCC(=O)O [compound 1411, Trifluoroacetate salt]", "MASP-2 CCP2-SP (Homo sapiens (Human))", 3.17),
    ("Cc1nc(N)ccc1CNC(=O)[C@H](C)NC(=O)[C@H]1C[C@@H](c2ccccc2)CCN1 [compound 1253, Dihydrochloride]", "MASP-2 CCP2-SP (Homo sapiens (Human))", 3.33),
    ("C[C@H](NC(=O)[C@H]1C[C@H](c2ccccc2)CN1)C(=O)NCc1ccc2c(N)nccc2c1", "MASP-2 CCP2-SP (Homo sapiens (Human))", 2.8),
    ("C[C@H](NC(=O)[C@H](N)C1Cc2ccccc2C1)C(=O)NCc1ccc2c(N)nccc2c1 [compound 1088, Dihydrochloride]", "MASP-2 CCP2-SP (Homo sapiens (Human))", 3.16),
    ("C[C@H](NC(=O)[C@H](N)CCc1ccccc1)C(=O)NCc1ccc(N)nc1", "MASP-2 CCP2-SP (Homo sapiens (Human))", 3.27),
    ("C[C@H](NC(=O)[C@H]1C[C@H](c2ccccc2)CN1)C(=O)NCc1ccc(N)nc1", "MASP-2 CCP2-SP (Homo sapiens (Human))", 3.18),
    ("CC(=O)Nc1ccc(CCN[C@H](CCc2ccccc2)C(=O)N[C@@H](C)C(=O)NCc2ccc(N)nc2C)cc1 [compound 1368, Dihydrochloride]", "MASP-2 CCP2-SP (Homo sapiens (Human))", 3.24),
    ("C[C@H](NC(=O)[C@H]1Cc2c([nH]c3ccccc23)CN1)C(=O)NCc1ccc(C(=N)N)cc1", "MASP-2 CCP2-SP (Homo sapiens (Human))", 2.74),
    ("C[C@H](NC(=O)[C@@H](CCc1ccccc1)NCc1ccc(N2CCOCC2)cc1)C(=O)NCc1ccc(C(=N)N)cc1", "MASP-2 CCP2-SP (Homo sapiens (Human))", 3.09),
    ("C[C@H](NC(=O)[C@H]1C[C@@H](c2ccccc2)CCN1)C(=O)NCc1ccc(C(=N)N)cc1 (stereo in doubt)", "MASP-2 CCP2-SP (Homo sapiens (Human))", 3.08),
]
